species on record: Rattus norvegicus; experiment: DrugMatrix - Regimen: Daily Repeat; type: toxicity, organism-based, Sprague-Dawley; design: regimen Daily Repeat, gender Male, age 6-8 weeks; conditions: in vivo, po, 1500 mg/kg, 120 h, tissue Plasma, route oral GAVAGE, dose level High, time 5 day, vehicle .5 % CMC
Give yes when the value for ALKALINE PHOSPHATASE is at least 300 u/L. Give no when it is less.

[Q] Is the recorded value of ALKALINE PHOSPHATASE equal to or greater than 300 u/L for this compound? CC(C)Oc1ccc2c(=O)c(-c3ccccc3)coc2c1 [IPRIFLAVONE]
[A] no

[Q] I'd appreciate it if you could say whether COC(=O)Nc1nc2ccc([S+]([O-])c3ccccc3)cc2[nH]1 (stereo not given) [OXFENDAZOLE] has ALKALINE PHOSPHATASE at least equal to 300 u/L.
[A] yes

[Q] I'd appreciate it if you could say whether CN(C)[C@@H]1C(O)=C(C(N)=O)C(=O)[C@@]2(O)C(O)=C3C(=O)c4c(O)ccc(Cl)c4[C@@](C)(O)[C@H]3C[C@@H]12 [CHLORTETRACYCLINE] has ALKALINE PHOSPHATASE at least equal to 300 u/L.
[A] yes

[Q] Say whether O=c1cnn([C@@H]2O[C@H](CO)[C@@H](O)[C@H]2O)c(=O)[nH]1 [6-AZAURIDINE] shows ALKALINE PHOSPHATASE of 300 u/L or more.
[A] no

====

species: Rattus norvegicus; assay: DrugMatrix - Regimen: Daily Repeat; format: toxicity, organism-based, Sprague-Dawley; design: regimen Daily Repeat, gender Male, age 6-8 weeks; conditions: in vivo, po, 0 mg/kg, 72 h, tissue Blood, route oral GAVAGE, dose level Control, time 3 day, vehicle 100 % WATER
Could you please report measured ABSOLUTE SEGMENTED NEUTROPHIL for the items listed next?
Numeric only. Scale: CELLS/uL

[Q] # get_value(readout='ABSOLUTE SEGMENTED NEUTROPHIL', item= CN(C)CC[C@@H](c1ccc(Cl)cc1)c1ccccn1 )
[A] 815.33

[Q] Using the record for O.O.O.O.O.O.[Cl-].[Cl-].[Sr+2] [STRONTIUM CHLORIDE HEXAHYDRATE] , report its ABSOLUTE SEGMENTED NEUTROPHIL.
[A] 1139.67

[Q] Quick one: ABSOLUTE SEGMENTED NEUTROPHIL of NNc1nncc2ccccc12 [HYDRALAZINE] ?
[A] 1292.17

[Q] What does the record list as ABSOLUTE SEGMENTED NEUTROPHIL for CC(C)NCC(O)c1ccc(NS(C)(=O)=O)cc1 (configuration not stated) ?
[A] 1259.5

[Q] What value of measured ABSOLUTE SEGMENTED NEUTROPHIL is listed for Cc1ccc(NC(=O)c2ccc(CN3CCN(C)CC3)cc2)cc1Nc1nccc(-c2cccnc2)n1 ?
[A] 1139.67

[Q] Please look up its ABSOLUTE SEGMENTED NEUTROPHIL: Cn1c(=O)c2[nH]cnc2n(C)c1=O.O
[A] 1223.17

[Q] Report ABSOLUTE SEGMENTED NEUTROPHIL for CC(C)(C)CC(C)(C)c1ccc(OCCOCC[N+](C)(C)Cc2ccccc2)cc1.[Cl-] [BENZETHONIUM CHLORIDE] please.
[A] 1292.17

[Q] # lookup: ABSOLUTE SEGMENTED NEUTROPHIL of CN(C)CCOC(c1ccccc1)c1ccccc1 [DIPHENHYDRAMINE]
[A] 1292.17

[Q] Data request, read-out ABSOLUTE SEGMENTED NEUTROPHIL, for C[C@]12C=CC(=O)C=C1CC[C@@H]1[C@@H]2[C@@H](O)C[C@@]2(C)[C@H]1CC[C@]2(O)C(=O)CO
[A] 2145

[Q] Requested read-out: ABSOLUTE SEGMENTED NEUTROPHIL. Entry: CCN(CC)CCNC(=O)c1cc(S(C)(=O)=O)ccc1OC [TIAPRIDE]
[A] 1139.67

[Q] If you can, please state the reported ABSOLUTE SEGMENTED NEUTROPHIL value of CS(=O)(=O)c1ccc([C@@H](O)[C@@H](CO)NC(=O)C(Cl)Cl)cc1 .
[A] 1139.67

[Q] Form field: reported ABSOLUTE SEGMENTED NEUTROPHIL of CN1[C@@H]2CC[C@H]1C[C@@H](OC(=O)C(CO)c1ccccc1)C2 (some centres not stated)
[A] 1220.33

====

Please respond with reported PHOSPHORUS for every item in the list.
species: Rattus norvegicus; test: DrugMatrix - Regimen: Daily Repeat; type: toxicity, organism-based, Sprague-Dawley; parameters: regimen Daily Repeat, gender Male, age 6-8 weeks; conditions: in vivo, po, 1500 mg/kg, 72 h, tissue Plasma, route oral GAVAGE, dose level High, time 3 day, vehicle .5 % CMC
Write down the numeric answer in mg/dL and omit the unit.

[Q] // returns reported PHOSPHORUS for input CC(C)=CCC/C(C)=C/CO
[A] 14.7

[Q] Entry under review: CC(C)Oc1ccc2c(=O)c(-c3ccccc3)coc2c1 . Reported PHOSPHORUS?
[A] 12.3

[Q] Bench note: what PHOSPHORUS did O=c1cnn([C@@H]2O[C@H](CO)[C@@H](O)[C@H]2O)c(=O)[nH]1 show?
[A] 12.03

[Q] Recorded PHOSPHORUS of COC(=O)Nc1nc2ccc([S+]([O-])c3ccccc3)cc2[nH]1 (stereo not given) , please.
[A] 11.6

[Q] Name the recorded PHOSPHORUS for CN(C)[C@@H]1C(O)=C(C(N)=O)C(=O)[C@@]2(O)C(O)=C3C(=O)c4c(O)ccc(Cl)c4[C@@](C)(O)[C@H]3C[C@@H]12 .
[A] 12.37

====

Assign HEMOGLOBIN to each entry below.
organism: Rattus norvegicus; test: DrugMatrix - Regimen: Daily Repeat; type: toxicity, organism-based, Sprague-Dawley; design: regimen Daily Repeat, gender Male, age 6-8 weeks; settings: in vivo, po, 1500 mg/kg, 72 h, tissue Blood, route oral GAVAGE, dose level High, time 3 day, vehicle .5 % CMC
Could you give the number and then its unit, please?

[Q] Field request: HEMOGLOBIN | item: COC(=O)Nc1nc2ccc([S+]([O-])c3ccccc3)cc2[nH]1 (stereo not given)
[A] 13.37 G/DL

[Q] Give the measured HEMOGLOBIN of CC(C)Oc1ccc2c(=O)c(-c3ccccc3)coc2c1 .
[A] 13.77 G/DL

[Q] What does the record list as HEMOGLOBIN for O=c1cnn([C@@H]2O[C@H](CO)[C@@H](O)[C@H]2O)c(=O)[nH]1 ?
[A] 12.07 G/DL

[Q] Endpoint output: HEMOGLOBIN of CC(C)=CCC/C(C)=C/CO . Value?
[A] 14.37 G/DL

[Q] Please give the measured HEMOGLOBIN for this compound: CN(C)[C@@H]1C(O)=C(C(N)=O)C(=O)[C@@]2(O)C(O)=C3C(=O)c4c(O)ccc(Cl)c4[C@@](C)(O)[C@H]3C[C@@H]12
[A] 14.6 G/DL

====

organism: Rattus norvegicus; experiment: DrugMatrix - Regimen: Daily Repeat; format: toxicity, organism-based, Sprague-Dawley; set-up: regimen Daily Repeat, gender Male, age 6-8 weeks; conditions: in vivo, po, 0 mg/kg, 120 h, tissue Plasma, route oral GAVAGE, dose level Control, time 5 day, vehicle 100 % WATER
So I've got a bunch of molecules here, and I need their CREATININE values.
Please provide the amount together with its unit, number first.

[Q] Entry under review: CC(C)NCC(O)c1ccc(NS(C)(=O)=O)cc1 (stereo not given) [SOTALOL] . Reported CREATININE?
[A] 0.21 mg/dL

[Q] Looking for the measured CREATININE of CCN(CC)CCNC(=O)c1cc(S(C)(=O)=O)ccc1OC [TIAPRIDE] , can you help?
[A] 0.23 mg/dL

[Q] If you can, please state the reported CREATININE value of Cn1c(=O)c2[nH]cnc2n(C)c1=O.O [THEOPHYLLINE] .
[A] 0.21 mg/dL

[Q] For the molecule shown here, C[C@]12C=CC(=O)C=C1CC[C@@H]1[C@@H]2[C@@H](O)C[C@@]2(C)[C@H]1CC[C@]2(O)C(=O)CO [PREDNISOLONE] , give the reported CREATININE.
[A] 0.18 mg/dL

[Q] Quick one: CREATININE of NNc1nncc2ccccc12 [HYDRALAZINE] ?
[A] 0.18 mg/dL

====

organism: Rattus norvegicus; assay: DrugMatrix - Regimen: Daily Repeat; format: toxicity, organism-based, Sprague-Dawley; design: regimen Daily Repeat, gender Male, age 6-8 weeks; settings: in vivo, po, 50 mg/kg, 72 h, tissue Plasma, route oral GAVAGE, dose level Low, time 3 day, vehicle .5 % CMC
Kindly state TOTAL PROTEIN for each of the entries shown.
Give just the numeric value; G/DL need not be written.

[Q] Which TOTAL PROTEIN value is on record for CN(C)[C@@H]1C(O)=C(C(N)=O)C(=O)[C@@]2(O)C(O)=C3C(=O)c4c(O)ccc(Cl)c4[C@@](C)(O)[C@H]3C[C@@H]12 ?
[A] 5.67

[Q] // lookup TOTAL PROTEIN for Cc1cccc(C)c1OCC(C)N (centres undefined)
[A] 6

[Q] Entry CCN1CCC[C@H]1CNC(=O)c1cc(S(N)(=O)=O)ccc1OC [LEVOSULPIRIDE] has what TOTAL PROTEIN?
[A] 6

[Q] What does the record list as TOTAL PROTEIN for NC1CCN(c2nc3c(cc2F)c(=O)c(C(=O)O)cn3-c2ccc(F)cc2F)C1 (centres undefined) ?
[A] 5.6
